assay: Volume of distribution at steady state in Sprague-Dawley rat at 1.0 mg/kg, iv; format: ADME, organism-based; details: in vivo, read-out: Vdss
recorded-metric: Vd (L/kg)
The answer is to be given in L/kg; state only the numeric part.

// lookup Vd for CCN(CC)CCCn1c2c(c3ccccc3c1=O)C(=O)C(=O)c1cc(C)oc1-2
7.98

* * *

experiment: Oral bioavailability in Sprague-Dawley rat at 3.90 mg/kg by LC-ESI-MS/MS analysis; format: ADME, organism-based; details: in vivo, 3.9 mg/kg
recorded-metric: bioavailability (%)
The answer is to be given in %; state only the numeric part.

// lookup bioavailability for Cc1coc2c1C(=O)C(=O)c1c-2ccc2c(C)cccc12
0

* * *

system: Liver; experiment: Intrinsic clearance in human liver microsomes assessed as per mg protein up to 60 mins by LC-MS/MS analysis; assay type: ADME, microsome; settings: 1 h
recorded-metric: intrinsic clearance (mL/min/g)
The answer is to be given in mL/min/g; state only the numeric part.

// lookup intrinsic clearance for CCN(CC)CCCn1c2c(c3ccccc3c1=O)C(=O)C(=O)c1cc(C)oc1-2
23.5

// lookup intrinsic clearance for Cc1cccc2c3c(ccc12)-c1occ(CN(C)C)c1C(=O)C3=O
4.19

// lookup intrinsic clearance for Cc1coc2c1C(=O)C(=O)c1c-2ccc2c(C)cccc12
325

// lookup intrinsic clearance for Cc1cccc2c3c(ccc12)C1=C(C(=O)C3=O)C(O)C(C)(C)O1 (centres undefined)
36.8

* * *

assay: Half life in mouse liver microsomes at 0.1 uM up to 60 mins by LC-MS/MS analysis; assay type: ADME, microsome; conditions: liver microsomes
recorded-metric: half-life at 0.1 µM
Form field: result (number plus unit)

// lookup half-life at 0.1 µM for Cc1cccc2c3c(ccc12)-c1occ(CN(C)C)c1C(=O)C3=O
40.7 min

// lookup half-life at 0.1 µM for CCN(CC)CCCn1c2c(c3ccccc3c1=O)C(=O)C(=O)c1cc(C)oc1-2
54.5 min

// lookup half-life at 0.1 µM for Cc1cccc2c3c(ccc12)C1=C(C(=O)C3=O)C(O)C(C)(C)O1 (stereo not drawn)
25.3 min

* * *

tested on: HCT-116; assay: Antiproliferative activity against human HCT116 cells after 72 hrs by sulforhodamine B assay; format: functional, cell-based; conditions: HCT-116, 72 h
recorded-metric: IC50
Form field: result (number plus unit)

// lookup IC50 for CCN(CC)CCCn1c2c(c3ccccc3c1=O)C(=O)C(=O)c1cc(C)oc1-2
0.14 µM

* * *

assay: Half life in human liver microsomes at 0.1 uM up to 60 mins by LC-MS/MS analysis; type: ADME, microsome
Give half-life at 0.1 µM for every item shown.
The answer is to be given in h; state only the numeric part.

// lookup half-life at 0.1 µM for CCN(CC)CCCn1c2c(c3ccccc3c1=O)C(=O)C(=O)c1cc(C)oc1-2
1.49

// lookup half-life at 0.1 µM for Cc1cccc2c3c(ccc12)C1=C(C(=O)C3=O)C(O)C(C)(C)O1 (centres undefined)
0.952

// lookup half-life at 0.1 µM for Cc1coc2c1C(=O)C(=O)c1c-2ccc2c(C)cccc12
0.107

// lookup half-life at 0.1 µM for Cc1cccc2c3c(ccc12)-c1occ(CN(C)C)c1C(=O)C3=O
8.35

* * *

experiment: Antiproliferative activity against human KB/VCR cells after 72 hrs by sulforhodamine B assay; assay type: functional, cell-based
recorded-metric: pIC50
# pIC50 = -log10(concentration in molar units)

// lookup pIC50 for Cc1cc2c(o1)-c1nc(OCCCCCN(C)C)c3ccccc3c1C(=O)C2=O
5.70

// lookup pIC50 for Cc1cccc2c3c(ccc12)C1=C(C(=O)C3=O)C(O)C(C)(C)O1 (stereo not given)
5.91

// lookup pIC50 for Cc1cc2c(o1)-c1c(c3ccccc3c(=O)n1CCCN1CCC(CCO)CC1)C(=O)C2=O
5.83

// lookup pIC50 for Cc1cccc2c3c(ccc12)-c1occ(CN(C)CCO)c1C(=O)C3=O
5.99

* * *

experiment: Aqueous solubility of the compound by HPLC method; type: physicochemical; conditions: buffer
recorded-metric: solubility

// lookup solubility for Cc1coc2c1C(=O)C(=O)c1c-2ccc2c(C)cccc12
< 0.1 µg/mL

* * *

assay: AUC in Sprague-Dawley rat at 3.0 mg/kg, po; format: ADME, organism-based; settings: in vivo
recorded-metric: AUC (ng·h/mL)
The answer is to be given in ng·h/mL; state only the numeric part.

// lookup AUC for CCN(CC)CCCn1c2c(c3ccccc3c1=O)C(=O)C(=O)c1cc(C)oc1-2
81.4

* * *

experiment: Cmax in Sprague-Dawley rat at 3.0 mg/kg, po; assay type: ADME, organism-based; set-up: dose 3 mg/kg, route oral; conditions: in vivo
recorded-metric: Cmax
Form field: result (number plus unit)

// lookup Cmax for CCN(CC)CCCn1c2c(c3ccccc3c1=O)C(=O)C(=O)c1cc(C)oc1-2
33.7 ng/mL

* * *

assay: Half life in Sprague-Dawley rat at 3.90 mg/kg, po by LC-ESI-MS/MS analysis; format: ADME, organism-based; conditions: in vivo, 3.9 mg/kg
recorded-metric: half-life (min)
The answer is to be given in min; state only the numeric part.

// lookup half-life for Cc1coc2c1C(=O)C(=O)c1c-2ccc2c(C)cccc12
10.2

* * *

experiment: Antiproliferative activity against human KB/VCR cells after 72 hrs by sulforhodamine B assay; type: functional, cell-based
recorded-metric: IC50 (µM)
The answer is to be given in µM; state only the numeric part.

// lookup IC50 for CCN(CC)CCCn1c2c(c3ccccc3c1=O)C(=O)C(=O)c1cc(C)oc1-2
0.33

// lookup IC50 for Cc1cc2c(o1)-c1nc(OCCOCCN(C)C)c3ccccc3c1C(=O)C2=O
1.65

// lookup IC50 for Cc1cccc2c3c(ccc12)-c1occ(CN2CCO[C@H](CO)C2)c1C(=O)C3=O
2.41

// lookup IC50 for CC[C@]1(O)C[C@H]2CN(CCc3c([nH]c4ccccc34)[C@@](C(=O)OC)(c3cc4c(cc3OC)N(C=O)[C@H]3[C@@](O)(C(=O)OC)[C@H](OC(C)=O)[C@]5(CC)C=CCN6CC[C@]43[C@@H]65)C2)C1
0.358

// lookup IC50 for Cc1cccc2c3c(ccc12)-c1occ(CN2CCC(=O)CC2)c1C(=O)C3=O
4.74

// lookup IC50 for COC1C2=C(OC1(C)C)c1ccc3c(C)cccc3c1C(=O)C2=O (centres undefined)
2.02

// lookup IC50 for Cc1cccc2c3c(ccc12)-c1occ(CN(CCCl)CCCl)c1C(=O)C3=O
10.9

// lookup IC50 for CON(C)Cc1coc2c1C(=O)C(=O)c1c-2ccc2c(C)cccc12
5.71

// lookup IC50 for Cc1cc2c(o1)-c1c(c3ccccc3c(=O)n1CCCCN(C)C)C(=O)C2=O
2.47

// lookup IC50 for Cc1cc2c(o1)-c1c(c3ccccc3c(=O)n1CCCN(C)C)C(=O)C2=O
0.92

// lookup IC50 for Cc1cccc2c3c(ccc12)-c1occ(CN2CCN(C)CC2)c1C(=O)C3=O
13.1

// lookup IC50 for Cc1cccc2c3c(ccc12)-c1occ(CN2CC[C@H](N(C)C)C2)c1C(=O)C3=O
1.7

// lookup IC50 for Cc1cccc2c3c(ccc12)-c1occ(CN(C)C)c1C(=O)C3=O
0.51

// lookup IC50 for Cc1cc2c(o1)-c1c(c3ccccc3c(=O)n1CCCN1CCC(N3CCOCC3)CC1)C(=O)C2=O
1.72

// lookup IC50 for Cc1cccc2c3c(ccc12)-c1occ(CO)c1C(=O)C3=O
2.95

// lookup IC50 for Cc1cc2c(o1)-c1c(c3ccccc3c(=O)n1CCCN1CCCC1)C(=O)C2=O
2.64

* * *

system: Liver; assay: Intrinsic clearance in rat liver microsomes assessed per mg protein up to 60 mins by LC-MS/MS analysis; format: ADME, microsome; conditions: 1 h
Give intrinsic clearance for every item shown.
The answer is to be given in mL/min/g; state only the numeric part.

// lookup intrinsic clearance for CCN(CC)CCCn1c2c(c3ccccc3c1=O)C(=O)C(=O)c1cc(C)oc1-2
27.7

// lookup intrinsic clearance for Cc1coc2c1C(=O)C(=O)c1c-2ccc2c(C)cccc12
836

// lookup intrinsic clearance for Cc1cccc2c3c(ccc12)C1=C(C(=O)C3=O)C(O)C(C)(C)O1 (centres undefined)
104

// lookup intrinsic clearance for Cc1cccc2c3c(ccc12)-c1occ(CN(C)C)c1C(=O)C3=O
92.7

* * *

test: AUC in Sprague-Dawley rat at 1.0 mg/kg, iv; type: ADME, organism-based; conditions: in vivo
recorded-metric: AUC (ng·h/mL)
The answer is to be given in ng·h/mL; state only the numeric part.

// lookup AUC for CCN(CC)CCCn1c2c(c3ccccc3c1=O)C(=O)C(=O)c1cc(C)oc1-2
114
